Cited source: patent US20240309004A1

Tested on: VZV strain Ellen
assay.procedure: VZV primary assay, strain Ellen, HFF cells
Format: cell-based, Varicella Zoster Virus
study.conditions: Human alphaherpesvirus 3; VZV primary assay, strain Ellen, cell line HFF; read-out: EC90

{"compound": "NCC1CCC(Nc2cc3c4ccc(F)cc4nn3cn2)CC1 (centres unmarked)", "EC90, nM": 2000}
{"compound": "CC(C)(C)OC(=O)N[C@H]1CCC(Nc2cc3c4ccc(F)cc4nn3cn2)C1 (some centres unmarked)", "EC90, nM": 2000}
{"compound": "CN(C(=O)OC(C)(C)C)C1CCC(Nc2cc3c4ccc(F)cc4nn3cn2)CC1 (centres unmarked)", "EC90, nM": 400}
{"compound": "Fc1ccc2c(c1)nn1cnc(NC3CCCOCC3)cc21 (centres unmarked)", "EC90, nM": 10000}
{"compound": "Nc1nc2c(ncn2COCCO)c(=O)[nH]1 [Acyclovir, reference compound]", "EC90, nM": 69400}

====

molecules and their reported CC50
assay.procedure: Cytotoxicity concurrent with Adenovirus primary assay
Assay type: cell-based
study.conditions: human

{"molecule": "NC(=O)CN1CCC(Nc2cc3c4ccc(F)cc4nn3cn2)CC1 [VKT-026]", "CC50, µM": 24.7}
{"molecule": "Fc1ccc2c(c1)nn1cnc(NC3CCSCC3)cc21 [VKT-017]", "CC50, µM": 46.7}
{"molecule": "Fc1ccc2c(c1)nn1cnc(NC3CCCOCC3)cc21 (centres unmarked) [VKT-015]", "CC50, µM": 41.8}
{"molecule": "CC(C)(C)OC(=O)N[C@H]1CCC(Nc2cc3c4ccc(F)cc4nn3cn2)C1 (some centres unmarked) [VKT-035]", "CC50, µM": 17.5}
{"molecule": "O=S1(=O)CCC(Nc2cc3c4ccc(F)cc4nn3cn2)CC1 [VKT-018]", "CC50, µM": 50}

====

System: VZV strain 15-6-001 resistant isolate
assay.procedure: microbe, parasite or virus in culture
Format: cell-based, Varicella Zoster Virus
study.conditions: Human alphaherpesvirus 3, HFF
pEC50: −log10 of the molar value.

{"molecule": "OCC1CCC(Nc2cc3c4ccc(F)cc4nn3cn2)CC1 (stereo not shown)", "pEC50": 5.00}

====

assay.procedure: Cytotoxicity concurrent with HPV11 primary assay
Type: cell-based
study.conditions: human, C-33 A cells
Description: An HPV11 replicon assay was developed and expresses the essential E1 and E2 proteins from the native promoter. […] The replication complex then drives the amplification of the replicon which can be assessed by the expression of a destabilized NanoLuc reporter gene carried on the replicon. […] At 48 h post transfection, the enzymatic activity of the destabilized NanoLuc reporter is assessed with NanoGlo reagent. […]
measurement.kind: CC50 (µM)

{"compound.structure": "Fc1ccc2c(c1)nn1cnc(NC3CCOCC3)cc21", "reading.unit": "µM", "numeric.value": 50}

====

assay.procedure: Cytotoxicity concurrent with Adenovirus secondary assay
Type: cell-based
study.conditions: human, uninfected HFF cell monolayers; Adeno secondary assay, HFF cells
Protocol: Monolayers of HFF cells were prepared in 96-well plates and incubated at 37° C. for 1 d to allow the cells to reach confluency. Media was then aspirated from the wells and cells infected at a high MOI. At 1 h following infection, the inocula were removed and the monolayers rinsed with fresh media. […] Supernatants from each of the infected wells were subsequently titered using CTG in a TCID50 assay to quantify the progeny virus. […]
compounds and their reported CC50

{"compound": "Fc1ccc2c(c1)nn1cnc(NC3CCCOCC3)cc21 (centres unmarked)", "CC50 [µM]": 48.6}
{"compound": "O=S1(=O)CCC(Nc2cc3c4ccc(F)cc4nn3cn2)CC1", "CC50 [µM]": 97.1}
